EXPERIMENTAL SYSTEM: Relaxin receptor 1 (Rattus norvegicus, UniProt Q6R6I6)
Sequence (Q6R6I6 whole entry): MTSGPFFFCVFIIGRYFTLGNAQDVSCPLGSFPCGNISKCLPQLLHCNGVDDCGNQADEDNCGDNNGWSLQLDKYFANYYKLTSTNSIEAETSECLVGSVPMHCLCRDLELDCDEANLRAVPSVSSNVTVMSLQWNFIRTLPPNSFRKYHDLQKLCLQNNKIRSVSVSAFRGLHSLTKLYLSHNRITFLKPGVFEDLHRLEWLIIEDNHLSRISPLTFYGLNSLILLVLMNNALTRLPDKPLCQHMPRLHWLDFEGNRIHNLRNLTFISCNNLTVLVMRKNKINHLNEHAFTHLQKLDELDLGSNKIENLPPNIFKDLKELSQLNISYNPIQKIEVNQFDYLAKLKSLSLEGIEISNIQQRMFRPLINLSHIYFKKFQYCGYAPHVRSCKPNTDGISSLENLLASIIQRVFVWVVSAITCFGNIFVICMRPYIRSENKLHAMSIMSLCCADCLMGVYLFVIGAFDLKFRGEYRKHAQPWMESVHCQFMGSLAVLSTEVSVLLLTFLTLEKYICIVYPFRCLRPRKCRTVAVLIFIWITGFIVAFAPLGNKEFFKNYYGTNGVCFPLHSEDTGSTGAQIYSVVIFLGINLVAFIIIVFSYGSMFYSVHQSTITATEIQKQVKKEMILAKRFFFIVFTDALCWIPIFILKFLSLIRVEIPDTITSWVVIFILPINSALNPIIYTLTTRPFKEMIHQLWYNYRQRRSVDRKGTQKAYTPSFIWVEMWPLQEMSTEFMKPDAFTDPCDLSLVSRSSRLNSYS
ASSAY REMARKS: Agonist activity at rat RXFP1 expressed in CHO-K1 cells assessed as increase in cAMP level measured after 2 hrs by HTRF cAMP assay
OBSERVED PROPERTY: EC50 (µM)

a: COc1cc(C#N)c(O[C@H]2CC[C@@](C)(C(=O)O)CC2)cc1C(=O)N[C@@H]1[C@H]2CC[C@H](C2)[C@@H]1C(=O)NC12CC(F)(C1)C2
b: COc1cc(C#N)c(O[C@H]2CC[C@@](C)(C(=O)O)CC2)cc1C(=O)N[C@@H]1[C@H]2CC[C@H](C2)[C@@H]1C(=O)NCC(C)(C)C
INPUT: # query: argmin of EC50 over a and b Label of pick, please.
OUTPUT: a
(a: 10.5 µM, b: 15.8 µM)

---

ASSAY REMARKS: Volume of distribution at steady state in Han Wistar rat at 0.93 micromol/kg, iv by LC-MS/MS analysis
Assay type: ADME, organism-based
RECORDED CONDITIONS: in vivo, dose 0.93 µmol/kg, read-out: Vdss
OBSERVED PROPERTY: Vd (L/kg)
Your answer is read as L/kg, so omit the unit and give the number.

INPUT: I would be grateful if you could share the reported Vd for COc1cc(C#N)c(O[C@H]2CC[C@@](C)(C(=O)O)CC2)cc1C(=O)N[C@@H]1[C@H]2CC[C@H](C2)[C@@H]1C(=O)NCC(C)(C)C .
OUTPUT: 0.55

---

EXPERIMENTAL SYSTEM: Relaxin receptor 1 (Homo sapiens, UniProt Q9HBX9)
Sequence (Q9HBX9 whole entry): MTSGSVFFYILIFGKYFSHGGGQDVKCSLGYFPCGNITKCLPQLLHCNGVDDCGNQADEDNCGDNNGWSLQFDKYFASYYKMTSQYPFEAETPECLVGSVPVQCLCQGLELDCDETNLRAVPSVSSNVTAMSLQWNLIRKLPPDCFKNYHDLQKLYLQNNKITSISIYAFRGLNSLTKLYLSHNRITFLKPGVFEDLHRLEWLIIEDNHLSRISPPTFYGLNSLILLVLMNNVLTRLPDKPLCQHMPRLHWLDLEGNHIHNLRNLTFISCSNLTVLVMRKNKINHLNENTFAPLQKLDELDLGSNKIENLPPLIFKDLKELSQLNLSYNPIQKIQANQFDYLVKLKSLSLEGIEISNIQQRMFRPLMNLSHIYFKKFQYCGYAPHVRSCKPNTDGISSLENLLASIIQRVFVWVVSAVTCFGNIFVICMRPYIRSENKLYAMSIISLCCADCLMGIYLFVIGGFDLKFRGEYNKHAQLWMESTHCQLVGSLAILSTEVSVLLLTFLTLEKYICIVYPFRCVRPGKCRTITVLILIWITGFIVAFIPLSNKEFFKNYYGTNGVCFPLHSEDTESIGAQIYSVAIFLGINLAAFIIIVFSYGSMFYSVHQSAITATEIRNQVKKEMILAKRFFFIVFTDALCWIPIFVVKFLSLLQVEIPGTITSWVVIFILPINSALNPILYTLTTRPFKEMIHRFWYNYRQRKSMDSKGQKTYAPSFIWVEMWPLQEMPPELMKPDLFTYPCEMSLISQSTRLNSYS
OBSERVED PROPERTY: EC50 (nM)

smiles_record=CC1(CNC(=O)[C@H]2[C@@H]3CC[C@@H](C3)[C@H]2NC(=O)c2cc(O[C@H]3CC[C@@](C)(C(=O)O)CC3)c(F)cc2OCF)CCC1 observed_property=EC50 units_text=nM recorded_value=6.31

a: COc1cc(F)c(O[C@H]2CC[C@@](C)(C(=O)O)CC2)cc1C(=O)N[C@@H]1[C@H]2CC[C@H](C2)[C@@H]1C(=O)NCC(C)(C)C
b: COc1cc(F)c(O[C@H]2CC[C@@](C)(c3noc(=O)[nH]3)CC2)cc1C(=O)N[C@@H]1[C@H]2CC[C@H](C2)[C@@H]1C(=O)NCC1(C)CCC1
INPUT: # query: argmin of EC50 over a and b Label of pick, please.
OUTPUT: a
(a: 39.8 nM, b: 79.4 nM)

---

ASSAY REMARKS: Metabolic stability in human liver microsomes assessed as unbound intrinsic clearance at 1 uM measured upto 30 mins by LC-MS/MS analysis
Assay type: ADME, Microsome
RECORDED CONDITIONS: 0.5 h
OBSERVED PROPERTY: CL free (µL/min/mg)

Here are 4 compounds together with their reported answers.
smiles_record=COc1cc(F)c(O[C@H]2CC[C@@](C)(C(=O)O)CC2)cc1C(=O)N[C@@H]1[C@H]2CC[C@H](C2)[C@@H]1C(=O)NCC(C)(C)C(F)(F)F units_text=µL/min/mg recorded_value=23
smiles_record=COc1cc(Cl)c(O[C@H]2CC[C@@](C)(C(=O)O)CC2)cc1C(=O)N[C@@H]1[C@@H]2CC[C@@H](C2)[C@@H]1C(=O)NCC1(C)CCC1 units_text=µL/min/mg recorded_value=100
smiles_record=COc1c(C)cc(O[C@H]2CC[C@@](C)(C(=O)O)CC2)cc1C(=O)N[C@@H]1[C@H]2CC[C@H](C2)[C@@H]1C(=O)NCC1(C)CCC1 units_text=µL/min/mg recorded_value=10
smiles_record=CC1(CNC(=O)[C@H]2[C@@H]3CC[C@@H](C3)[C@H]2NC(=O)c2cc(O[C@H]3CC[C@@](C)(C(=O)O)CC3)c(F)cc2O)CCC1 units_text=µL/min/mg recorded_value=17

I: COc1cc(F)c(O[C@H]2CC[C@@](CC#N)(C(=O)O)CC2)cc1C(=O)N[C@@H]1[C@H]2CC[C@H](C2)[C@@H]1C(=O)NCC1(C)CCC1
II: COc1ccc(O[C@H]2CC[C@@](C)(C(=O)O)CC2)cc1C(=O)N[C@@H]1[C@H]2CC[C@H](C2)[C@@H]1C(=O)NCC1(C)CCC1
INPUT: Rank I against II by their CL free values and give the higher one. Label of pick, please.
OUTPUT: II

---

EXPERIMENTAL SYSTEM: Relaxin receptor 1 (Homo sapiens, UniProt Q9HBX9)
ASSAY REMARKS: Agonist activity at human RXFP1 expressed in CHO-K1 cells assessed as dynamic mass redistribution (DMR) measured after 60 mins by G-protein coupling DMR assay
OBSERVED PROPERTY: pEC50
pEC50 (log units): -log10 of the concentration in mol/L.

INPUT: Lab note: need pEC50 for COc1cc(F)c(O[C@H]2CC[C@@](C)(C(=O)O)CC2)cc1C(=O)N[C@@H]1[C@H]2CC[C@H](C2)[C@@H]1C(=O)Nc1ccc(F)c(S(F)(F)(F)(F)F)c1 on Relaxin receptor 1 (Homo sapiens, UniProt Q9HBX9), anyone have it?
OUTPUT: 10.60

---

ASSAY REMARKS: Metabolic stability in human hepatocytes assessed as intrinsic clearance measured per 10^6 viable cells/ml at 1 uM measured upto 120 mins by LC-MS/MS analysis
Format: ADME, cell-based, Hepatocyte
RECORDED CONDITIONS: read-out: CLH
OBSERVED PROPERTY: hepatocyte CLint at 1 µM (µL/min/1e6 cells)
Your answer is read as µL/min/1e6 cells, so omit the unit and give the number.

smiles_record=COc1cc(C)c(O[C@H]2CC[C@@](C)(C(=O)O)CC2)cc1C(=O)N[C@@H]1[C@H]2CC[C@H](C2)[C@@H]1C(=O)NCC1(C)CCC1 observed_property="hepatocyte CLint at 1 µM" recorded_value=3.1
smiles_record=COc1cc(F)c(O[C@H]2CC[C@@](C)(c3nnn[nH]3)CC2)cc1C(=O)N[C@@H]1[C@H]2CC[C@H](C2)[C@@H]1C(=O)NCC1(C)CCC1 observed_property="hepatocyte CLint at 1 µM" recorded_value=5.8
smiles_record=COCc1cc(OC)c(C(=O)N[C@@H]2[C@H]3CC[C@H](C3)[C@@H]2C(=O)NCC2(C)CCC2)cc1O[C@H]1CC[C@@](C)(C(=O)O)CC1 observed_property="hepatocyte CLint at 1 µM" recorded_value=3.2
smiles_record=COc1cc(F)c(O[C@H]2CC[C@](C(=O)O)(C(F)(F)F)CC2)cc1C(=O)N[C@@H]1[C@H]2CC[C@H](C2)[C@@H]1C(=O)NCC1(C)CCC1 observed_property="hepatocyte CLint at 1 µM" recorded_value=3.9
smiles_record=CC1(CNC(=O)[C@H]2[C@@H]3CC[C@@H](C3)[C@H]2N2CCc3cc(F)c(O[C@H]4CC[C@@](C)(C(=O)O)CC4)cc3C2=O)CCC1 observed_property="hepatocyte CLint at 1 µM" recorded_value=2.1

Kindly consider the entry below.
INPUT: I would be grateful if you could share the reported hepatocyte CLint at 1 µM for CC1(CNC(=O)[C@H]2[C@@H]3CC[C@@H](C3)[C@H]2NC(=O)c2cc(O[C@H]3CC[C@@](C)(C(=O)O)CC3)cc3c2OCC3)CCC1 .
OUTPUT: 3.3

---

ASSAY REMARKS: Apparent permeability across apical to basolateral side in human Caco-2 cells at pH 7.4 by LC-MS/MS analysis
Type: ADME, cell-based
RECORDED CONDITIONS: Caco-2, pH 7.4
OBSERVED PROPERTY: Papp A→B (×10⁻⁶ cm/s)

smiles_record=COc1cc(F)c(O[C@H]2CC[C@@](C)(C(=O)O)CC2)cc1C(=O)N[C@@H]1[C@H]2CC[C@H](C2)[C@@H]1C(=O)NCC(C)(C)C recorded_value=81

I: COc1cc(F)c(O[C@H]2CC[C@](C(=O)O)(C(F)(F)F)CC2)cc1C(=O)N[C@@H]1[C@H]2CC[C@H](C2)[C@@H]1C(=O)NCC1(C)CCC1
II: COc1cc(F)c(O[C@H]2CC[C@@](CO)(C(=O)O)CC2)cc1C(=O)N[C@@H]1[C@H]2CC[C@H](C2)[C@@H]1C(=O)NCC1(C)CCC1
III: COc1cc(F)c(O[C@H]2CC[C@@](C)(C(=O)O)CC2)cc1C(=O)N[C@@H]1[C@H]2CC[C@H](C2)[C@@H]1C(=O)NCC(C)(C)C(F)(F)F
INPUT: Rank by Papp A→B (largest to smallest). Lab note: record answer as labels in requested order.
OUTPUT: III, I, II

---

EXPERIMENTAL SYSTEM: Relaxin receptor 1 (Homo sapiens)
ASSAY REMARKS: Agonist activity at human RXFP1 expressed in HEK293 cells co-expressing G-alphas assessed as cAMP production measured after 15 mins by BRET sensor assay
OBSERVED PROPERTY: EC50 (nM)
Your answer is read as nM, so omit the unit and give the number.

INPUT: I would be grateful if you could share the reported EC50 for COc1cc(F)c(O[C@H]2CC[C@@](C)(C(=O)O)CC2)cc1C(=O)N[C@@H]1[C@H]2CC[C@H](C2)[C@@H]1C(=O)Nc1ccc(F)c(S(F)(F)(F)(F)F)c1 .
OUTPUT: 0.316
